experiment: solvent given as SMILES; details: in Cc1ccccc1

SMILES REPRESENTATION	absorption maximum / nm
CC(C)(C)c1ccc2c(c1)c1cc(C(C)(C)C)ccc1n2-c1ccc(-c2ccc3c(c2)C(=O)c2ccc(-c4ccc(-n5c6ccc(C(C)(C)C)cc6c6cc(C(C)(C)C)ccc65)cc4)cc2C3=O)cc1	426
COC(=O)c1cc(=O)n(C)c2cc(-c3ccc(OC)cc3)sc12	402
N#Cc1cc(C#N)c(-c2cc(-n3c4ccccc4c4ccccc43)cc(-n3c4ccccc4c4ccccc43)c2)cc1-c1ccc(N(c2ccccc2)c2ccccc2)cc1	405
N#Cc1nc2c3ccc(-n4c5ccccc5c5ccccc54)cc3c3cc(-n4c5ccccc5c5ccccc54)ccc3c2nc1C#N	442
CCOC(=O)COc1ccc(/C=C/c2cc(C)c3n2[B-](F)(F)[N+]2=C(c4[nH]c(C)cc4C)c4ccccc4C2=C3)cc1	678
CCCC1=Cc2nc1ccc1[nH]c(cc1CCC)c1nc(c(OC(=O)CCCC(=O)OC(C)(C)C)cc3[nH]c2cc3CCC)C(CCC)=C1	645
CCCC1=Cc2nc1ccc1[nH]c(cc1CCC)c1nc(ccc3[nH]c2cc3CCC)C(CCC)=C1	667
